Task for the reader: assign each of the following compounds its reported IC50.
Target: B-Raf kinase (SEQ. ID NO: 2) (Homo sapiens (Human), UniProt P15056)
Sequence (P15056 416-766): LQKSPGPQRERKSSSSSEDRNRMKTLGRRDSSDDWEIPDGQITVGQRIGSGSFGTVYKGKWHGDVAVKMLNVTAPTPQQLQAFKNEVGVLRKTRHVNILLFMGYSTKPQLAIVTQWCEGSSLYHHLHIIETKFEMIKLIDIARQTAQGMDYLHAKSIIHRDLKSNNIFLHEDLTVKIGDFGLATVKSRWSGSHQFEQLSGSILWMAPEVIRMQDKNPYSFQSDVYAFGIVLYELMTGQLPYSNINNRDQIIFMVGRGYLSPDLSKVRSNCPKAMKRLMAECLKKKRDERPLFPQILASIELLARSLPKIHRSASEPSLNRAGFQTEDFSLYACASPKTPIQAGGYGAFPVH
Test: Biochemical Assay for B-Raf (1)
Details: Table J, biochemical assay (1); read-out: BRAF (1)

Ask | Record Cc1ccc(NC(=O)c2cc(C(C)(C)C)on2)cc1-c1cncc(-c2cc(NC(=O)C3CC3)ncn2)c1 : what is its IC50 with B-Raf kinase (SEQ. ID NO: 2) (Homo sapiens (Human), UniProt P15056)?
Reply | ≤ 100 nM

Ask | CNC(=O)c1cc(-c2cc(-c3cc(NC(=O)c4ccnc(C(C)(C)F)c4)ccc3C)nc(C)n2)ccn1 ?
Reply | 100 to 500 nM

Ask | COC(=O)Nc1cc(-c2cncc(-c3cc(NC(=O)c4ccnc(C5(C#N)CC5)c4)ccc3C)c2)ncn1 ?
Reply | ≤ 100 nM

====

Target: B-Raf kinase (SEQ. ID NO: 2) (Homo sapiens (Human))
Test: Biochemical Assay for B-Raf (1)
Details: Table J, assay version (1); read-out: BRAF (1) IC50
Measured endpoint: IC50

Ask | Which IC50 reading was recorded for the compound CC(=O)Nc1cc(-c2cc(-c3cc(NC(=O)c4ccnc(C(C)(C)C#N)c4)ccc3C)cn(C)c2=O)ccn1 ?
Reply | 100 to 500 nM

Ask | Cc1ccc(NC(=O)c2cnnc(C3CC3)c2)cc1-c1ccnc(-c2ccnc(NC(=O)C3CC3)c2)n1 ?
Reply | ≤ 100 nM

Ask | CNC(=O)c1cc(-c2nccc(-c3cc(NC(=O)c4ccnc(C(C)(C)C#N)c4)cnc3C)n2)ccn1 ?
Reply | 500 to 1000 nM

Ask | Cc1ncc(NC(=O)CC2COC2)cc1-c1cccc(-c2cc(NC(=O)C3CC3)ncn2)c1 ?
Reply | 1000 to 10000 nM

Ask | Cc1ccc(NC(=O)c2ccnc(C(C)(C)C#N)c2)cc1-c1cccc(-c2cc(N)ncn2)c1 ?
Reply | ≤ 100 nM

Ask | Cc1ncc(NC(=O)c2ccnc(C(C)(C)C#N)c2)cc1-c1cccc(-c2cc(NC(=O)C3CC3)ncn2)n1 ?
Reply | 1000 to 10000 nM

Ask | CNC(=O)c1cc(-c2cc(-c3cc(NC(=O)c4ccnc(C(C)(C)C#N)c4)cnc3C)ccn2)ccn1 ?
Reply | 100 to 500 nM

Ask | Cc1ncc(NC(=O)c2ccnc(C(C)(C)C#N)c2)cc1-c1cccc(-c2cc(NC(=O)C(C)(C)C)ncn2)c1 ?
Reply | 1000 to 10000 nM

Ask | Cc1ccc(NC(=O)c2ccnc(C(C)(C)F)c2)cc1-c1ccnc(-c2ccnc(NC(=O)C3CC3)c2)n1 ?
Reply | ≤ 100 nM

Ask | Cc1ncc(NC(=O)C2CNCCO2)cc1-c1cccc(-c2cc(NC(=O)C3CC3)ncn2)c1 (stereo not drawn) ?
Reply | 1000 to 10000 nM

Ask | CC(=O)Nc1cc(-c2cc(-c3cc(NC(=O)c4ccnc(C(F)(F)F)c4)ccc3F)cc(C)n2)ccn1 ?
Reply | ≤ 100 nM

Ask | Cc1ncc(NC(=O)C2CCC3(CC2)COC3)cc1-c1nccc(-c2ccnc(NC(=O)C3CC3)c2)n1 ?
Reply | 1000 to 10000 nM

Ask | CNC(=O)c1cc(-c2cnnc(-c3cc(NC(=O)c4ccnc(C(F)F)c4)cnc3C)c2)ccn1 ?
Reply | 500 to 1000 nM

Ask | CNC(=O)c1cc(-c2cc(-c3cc(NC(=O)c4ccnc(C)c4)ccc3C)ncn2)ccn1 ?
Reply | 100 to 500 nM

Ask | Cc1ncc(NC(=O)c2cncc(C(F)F)c2)cc1-c1cccc(-c2cc(NC(=O)C3CC3)ncn2)c1 ?
Reply | ≤ 100 nM

Ask | CNC(=O)c1cc(-c2cc(-c3cc(NC(=O)c4ccnc(C(C)(C)C#N)c4)ccc3C)cc(C3CC3)n2)ccn1 ?
Reply | 100 to 500 nM

Ask | Cc1ncc(NC(=O)C2CCOCC2)cc1-c1nccc(-c2ccnc(NC(=O)C3CC3)c2)n1 ?
Reply | 1000 to 10000 nM

Ask | Cc1ccc(NC(=O)c2ccnc(C(C)(C)C#N)c2)cc1-c1ccnc(-c2ccnc(NC(=O)C3(C)CC3)c2)n1 ?
Reply | 100 to 500 nM

====

Molecular target: C-Raf kinase (SEQ. ID NO: 3) (Homo sapiens (Human), UniProt P04049, Y340D/Y341D)
Sequence (P04049 307-648 Y340D/Y341D): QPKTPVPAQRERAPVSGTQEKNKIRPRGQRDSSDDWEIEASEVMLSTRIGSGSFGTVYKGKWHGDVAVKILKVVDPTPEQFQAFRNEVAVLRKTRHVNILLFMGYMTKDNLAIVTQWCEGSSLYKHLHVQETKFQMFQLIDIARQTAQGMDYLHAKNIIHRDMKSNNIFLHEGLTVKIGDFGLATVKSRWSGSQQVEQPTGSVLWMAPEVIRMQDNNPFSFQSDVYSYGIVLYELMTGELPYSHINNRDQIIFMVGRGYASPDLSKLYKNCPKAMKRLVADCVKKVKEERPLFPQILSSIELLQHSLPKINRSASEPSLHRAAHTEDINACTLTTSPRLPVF
Assay: Biochemical Assay for C-Raf (1)
Conditions: Table J, assay version (1); read-out: CRAF (1) IC50
Measured endpoint: IC50

Ask | Record Cc1ccc(NC(=O)c2ccnc(C(C)(C)C#N)c2)cc1-c1cncc(-c2ccnc(NC=O)c2)n1 : what is its IC50 with C-Raf kinase (SEQ. ID NO: 3) (Homo sapiens (Human), UniProt P04049, Y340D/Y341D)?
Reply | ≤ 0.1 µM

Ask | CNC(=O)c1cc(-c2ccnc(-c3cc(NC(=O)c4ccnc(C(C)(C)F)c4)ccc3C)n2)ccn1 ?
Reply | ≤ 0.1 µM

Ask | CC(=O)Nc1cc(-c2nccc(-c3cc(NC(=O)c4ccnc(C5CC5)c4)ccc3C)n2)ccn1 ?
Reply | ≤ 0.1 µM

Ask | Cc1ccc(NC(=O)c2cc(CN(C)C)cc(C(F)(F)F)c2)cc1-c1cccc(-c2cc(NC(=O)C3CC3)ncn2)c1 ?
Reply | ≤ 0.1 µM

Ask | COC(C)(C)C(=O)Nc1cc(-c2cc(-c3cc(NC(=O)c4ccnc(C(C)(C)C#N)c4)ccc3C)ccn2)ccn1 ?
Reply | 0.1 to 0.5 µM

Ask | Cc1ccc(NC(=O)c2ccnc(C3CC3)c2)cc1-c1ccnc(-c2ccnc(NC(=O)C3CC3)c2)n1 ?
Reply | ≤ 0.1 µM

Ask | Cc1cc(F)c(NC(=O)c2ccnc(C(F)(F)F)c2)cc1-c1cncc(-c2ccnc(NC(=O)C3CC3)c2)n1 ?
Reply | ≤ 0.1 µM

Ask | CNC(=O)c1cc(-c2cccc(-c3cc(NC(=O)c4ccnc(C(C)(C)C#N)c4)cnc3C)c2)cnn1 ?
Reply | 0.1 to 0.5 µM

Ask | Cc1ccc(NC(=O)c2ccnc(C(F)(F)F)c2)cc1-c1ccnc(-c2ccnc(NC(=O)CC#N)c2)c1 ?
Reply | ≤ 0.1 µM

Ask | Cc1ncc(NC(=O)c2ccnc(C(C)(C)C#N)c2)cc1-c1cccc(-c2ccnc(NC(=O)C3CC3)c2)c1 ?
Reply | ≤ 0.1 µM

Ask | CNC(=O)c1cc(-c2cnnc(-c3cc(NC(=O)c4ccnc(C(F)F)c4)cnc3C)c2)ccn1 ?
Reply | 0.1 to 0.5 µM

Ask | Cc1ncc(NC(=O)c2ccnc(C(C)(C)C#N)c2)cc1-c1ccnc(-c2ccnc(NC(=O)C(C)(C)C)c2)c1 ?
Reply | 0.1 to 0.5 µM

Ask | CNC(=O)c1cc(-c2cncc(-c3cc(NC(=O)c4ccnc(C5CC5)c4)ccc3C)n2)ccn1 ?
Reply | ≤ 0.1 µM

Ask | Cc1ncc(NC(=O)c2ccnc(C(C)(C)C#N)c2)cc1-c1cc(-c2cc(NC(=O)C3CC3)ncn2)cc(C2CC2)c1 ?
Reply | ≤ 0.1 µM

Ask | Cc1cc(F)c(NC(=O)c2ccnc(C(C)(C)C#N)c2)cc1-c1ccnc(-c2ccnc(NC(=O)C3CC3)c2)c1 ?
Reply | ≤ 0.1 µM

Ask | CNC(=O)c1cc(-c2cnnc(-c3cc(NC(=O)c4cnn(C5CC5)c4)cnc3C)c2)ccn1 ?
Reply | 1 to 10 µM

Ask | Cc1cc(F)c(NC(=O)c2ccnc(C(F)F)c2)cc1-c1cncc(-c2ccnc(NC(=O)C3CC3)c2)n1 ?
Reply | ≤ 0.1 µM

Ask | Cc1ncc(NC(=O)c2ccnc(C(C)(C)F)c2)cc1-c1cc(-c2ccnc(NC(=O)C3CC3)c2)cnn1 ?
Reply | ≤ 0.1 µM

Ask | CC(=O)Nc1cc(-c2cc(-c3cc(NC(=O)c4ccnc(C(F)(F)F)c4)ccc3C)cc(C(C)(C)O)n2)ccn1 ?
Reply | 0.1 to 0.5 µM

Ask | CC(=O)Nc1cc(-c2cc(-c3cc(NC(=O)c4ccnc(C(F)(F)F)c4)c(F)cc3C)ccn2)ccn1 ?
Reply | ≤ 0.1 µM

Ask | CC(=O)Nc1cc(-c2cc(-c3cc(NC(=O)c4ccnc(C(F)(F)F)c4)ccc3C)cn(C)c2=O)ccn1 ?
Reply | ≤ 0.1 µM

Ask | CNC(=O)c1cc(-c2cccc(-c3cc(NC(=O)c4ccnc(C(C)(C)C#N)c4)cnc3C)c2)ccn1 ?
Reply | ≤ 0.1 µM

====

Biological target: A-Raf kinase (SEQ. ID No: 1) (Homo sapiens (Human), UniProt P10398, Y301D/Y302D)
Sequence (P10398 other isoform, or with tags, fused parts or gaps Y301D (already in the parent)/Y302D (already in the parent)): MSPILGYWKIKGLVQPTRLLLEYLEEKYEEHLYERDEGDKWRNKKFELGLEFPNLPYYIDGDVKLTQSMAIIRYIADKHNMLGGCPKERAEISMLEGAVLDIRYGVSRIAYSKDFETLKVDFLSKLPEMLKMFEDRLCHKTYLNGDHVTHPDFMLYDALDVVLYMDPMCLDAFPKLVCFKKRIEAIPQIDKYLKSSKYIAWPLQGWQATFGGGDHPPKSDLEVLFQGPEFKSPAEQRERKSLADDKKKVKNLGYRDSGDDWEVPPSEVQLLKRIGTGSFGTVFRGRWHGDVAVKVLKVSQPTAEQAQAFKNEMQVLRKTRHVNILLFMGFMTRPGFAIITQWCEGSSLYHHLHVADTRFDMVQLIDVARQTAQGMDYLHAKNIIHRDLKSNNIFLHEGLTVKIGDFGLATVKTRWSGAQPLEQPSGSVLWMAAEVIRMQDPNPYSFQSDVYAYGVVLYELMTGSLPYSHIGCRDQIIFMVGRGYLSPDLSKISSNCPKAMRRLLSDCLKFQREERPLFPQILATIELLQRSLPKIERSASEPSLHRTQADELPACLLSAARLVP
Assay: Biochemical Assay for A-Raf (2)
Conditions: Table J, biochemical assay (2); read-out: ARAF (2)
Measured endpoint: IC50

Ask | Which IC50 reading was recorded for the compound CNC(=O)c1cc(-c2cc(-c3cc(NC(=O)c4ccnc(C(C)(C)F)c4)ccn3)ccn2)ccn1 [Example 481] ?
Reply | 1000 to 10000 nM

Ask | CC(C)(F)c1cc(C(=O)Nc2ccc(F)c(-c3ccnc(-c4ccnc(C(N)=O)c4)c3)c2)ccn1 [Example 491] ?
Reply | 1000 to 10000 nM

Ask | CNC(=O)c1cc(-c2cc(-c3cc(NC(=O)c4ccnc(C5(F)CC5)c4)ccc3C)cc(C)n2)ccn1 [Example 496] ?
Reply | 1000 to 10000 nM

Ask | [2H]C([2H])([2H])NC(=O)c1cc(-c2cc(-c3cc(NC(=O)c4ccnc(C(C)(C)F)c4)ccc3C)ccn2)ccn1 [Example 489] ?
Reply | 100 to 500 nM

Ask | CNC(=O)c1cc(-c2cc(-c3cc(NC(=O)c4ccnc(C(C)(C)F)c4)ccc3F)ccn2)ccn1 [Example 479] ?
Reply | 100 to 500 nM
